# TARGET: NR2F6 (Homo sapiens, UniProt P10588)
# Construct: expressed in transfected cells; also transient transfection
# Sequence (P10588 whole entry): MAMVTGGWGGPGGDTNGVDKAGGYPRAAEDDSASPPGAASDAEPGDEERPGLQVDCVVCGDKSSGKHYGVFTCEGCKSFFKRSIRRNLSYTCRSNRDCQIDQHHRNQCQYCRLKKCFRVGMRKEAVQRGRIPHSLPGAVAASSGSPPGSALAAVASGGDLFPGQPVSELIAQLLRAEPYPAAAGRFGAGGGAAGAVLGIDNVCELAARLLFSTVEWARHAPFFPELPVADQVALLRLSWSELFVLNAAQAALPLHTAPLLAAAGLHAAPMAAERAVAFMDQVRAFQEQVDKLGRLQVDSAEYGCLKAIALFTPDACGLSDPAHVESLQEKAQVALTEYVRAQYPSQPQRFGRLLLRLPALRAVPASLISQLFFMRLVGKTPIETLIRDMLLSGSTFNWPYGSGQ
# METHOD_SUMMARY: NR2F6 agonist screening, Firefly signal cmpd/DMSO
# Type: cell-based
# RUN_CONDITIONS: C11 analogs follow set (Tables 2-10), repeat 2
MEASURED_PARAMETER: Firefly, cmpd/DMSO repeat 2

// known answers, use as guide
COc1ccc(S(=O)(=O)c2cc3cc(Br)ccc3oc2=O)cc1 [Compound C199] ... 16.1
N#Cc1cccc(S(=O)(=O)c2cc3cc(Br)ccc3oc2=O)c1 [Compound C196] ... 3.4

(I) Cc1cc(C)cc(S(=O)(=O)c2cc3cc(F)ccc3oc2=O)c1 [Compound C190]
(II) Cc1ccc(S(=O)(=O)c2cc3cc(Cl)ccc3oc2=O)cc1C [Compound C143]
(III) COc1ccc2oc(=O)c(S(=O)(=O)c3ccc(OC)c(OC)c3)cc2c1 [Compound C156]
Enquiry: Sort these molecules on Firefly, cmpd/DMSO repeat 2 so the largest reading comes first. List labels; respect the requested ordering.
Return: II, I, III
